Test system: Macrophage
method_description: Inhibition of LPS-stimulated TNFalpha production in mouse peritoneal macrophages
Format: functional, cell-based
pIC50: −log10 of the molar value.
experimental_endpoint: pIC50

Below are worked cases with known answers.
Suppose we examine the compound `CCNc1nc2ccc(-c3[nH]c(-c4c(F)cccc4F)nc3-c3ccccc3)cc2[nH]1` ; what pIC50 value has been reported?
6.31

What does the data say about its pIC50? Entry: `CC(C)S(=O)(=O)n1c(N)nc2ccc(-c3[nH]c(C(C)(C)C)nc3-c3ccc(F)cc3F)cc21`
8.21

Find the recorded pIC50 belonging to `CC(C)S(=O)(=O)n1c(N)nc2ccc(-c3[nH]cnc3-c3ccccc3)cc21` and report it.
7.50

Entry under review: `CC(C)S(=O)(=O)n1c(N)nc2ccc(-c3[nH]c(-c4c(F)cccc4F)nc3-c3ccccc3)nc21` . Reported pIC50?
8.43

a. CC(C)S(=O)(=O)n1c(N)nc2ccc(-c3nc(-c4c(Cl)cccc4Cl)[nH]c3-c3ccc(F)cc3)cc21
b. CC(C)Cn1c(N)nc2ccc(-c3[nH]c(-c4c(F)cccc4F)nc3-c3ccccc3)nc21
So which one has the bigger pIC50 here, a or b ? Answer by stating the label of the chosen item.
b

###

study_system: Mitogen-activated protein kinase 14 (Mus musculus, UniProt P47811)
Sequence (P47811 whole entry): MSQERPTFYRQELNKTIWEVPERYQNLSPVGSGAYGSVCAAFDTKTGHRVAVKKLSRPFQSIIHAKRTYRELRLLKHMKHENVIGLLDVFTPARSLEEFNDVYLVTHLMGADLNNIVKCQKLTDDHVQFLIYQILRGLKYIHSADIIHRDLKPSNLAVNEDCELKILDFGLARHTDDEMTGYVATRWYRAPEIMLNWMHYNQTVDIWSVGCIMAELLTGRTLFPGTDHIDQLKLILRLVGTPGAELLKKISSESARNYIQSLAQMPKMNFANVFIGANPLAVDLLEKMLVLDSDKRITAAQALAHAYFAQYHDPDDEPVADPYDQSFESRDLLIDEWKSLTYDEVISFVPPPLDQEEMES
method_description: Inhibition of mouse p38alpha in anisomycin-stimulated RAW 264.7 cells by ELISA
pIC50: −log10 of the molar value.
experimental_endpoint: pIC50

# annotated cases, reported pIC50 shown
Which pIC50 is reported with Mitogen-activated protein kinase 14 (Mus musculus, UniProt P47811) for this entry: `CC(C)S(=O)(=O)n1c(N)nc2ccc(-c3nc(-c4ccccc4C(F)(F)F)[nH]c3-c3ccccc3)cc21` ?
6.55

Provide the documented pIC50 with Mitogen-activated protein kinase 14 (Mus musculus, UniProt P47811) as the system for `CC(C)Cn1cnc2ccc(-c3[nH]c(-c4c(Cl)cccc4Cl)nc3-c3ccccc3)nc21.CS(=O)(=O)O`
7.19

Request body: readout pIC50, system Mitogen-activated protein kinase 14 (Mus musculus, UniProt P47811), query `CC(C)Cn1cnc2ccc(-c3[nH]c(-c4c(F)cccc4F)nc3-c3ccccc3)nc21` . Return the value.
7.16

Mitogen-activated protein kinase 14 (Mus musculus, UniProt P47811) / pIC50 / `CC(C)S(=O)(=O)n1c(N)nc2ccc(-c3[nH]c(-c4ccncc4)nc3-c3ccccc3)cc21` : value?
7.21

What pIC50 appears in the records for this molecule with Mitogen-activated protein kinase 14 (Mus musculus, UniProt P47811)? `Cc1nc(-c2ccc(F)cc2F)c(-c2ccc3nc(N)n(S(=O)(=O)C(C)C)c3c2)[nH]1`
7.22

P. CC(C)S(=O)(=O)n1c(N)nc2ccc(-c3[nH]c(-c4c(F)cccc4F)nc3-c3ccccc3)cc21
Q. CC(C)S(=O)(=O)n1c(N)nc2ccc(-c3[nH]c(-c4ccc(Cl)cc4)nc3-c3ccccc3)cc21
R. CC(C)S(=O)(=O)n1c(N)nc2ccc(-c3[nH]cnc3-c3ccccc3)cc21
I would appreciate it if you could sort these 3 molecules by pIC50, starting from the smallest number. List labels; respect the requested ordering.
Q, R, P

###

study_system: Mitogen-activated protein kinase 14 (Homo sapiens)
Sequence (Q16539 whole entry): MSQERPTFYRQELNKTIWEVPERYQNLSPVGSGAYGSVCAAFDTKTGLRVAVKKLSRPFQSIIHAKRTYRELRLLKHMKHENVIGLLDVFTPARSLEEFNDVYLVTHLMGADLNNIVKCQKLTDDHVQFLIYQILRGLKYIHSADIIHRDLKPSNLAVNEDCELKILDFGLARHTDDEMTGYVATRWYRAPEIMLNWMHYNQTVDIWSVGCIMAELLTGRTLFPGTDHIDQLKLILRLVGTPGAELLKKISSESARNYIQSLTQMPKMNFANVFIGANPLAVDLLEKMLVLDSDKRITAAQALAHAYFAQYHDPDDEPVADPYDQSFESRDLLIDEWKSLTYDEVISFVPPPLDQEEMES
method_description: Inhibition of human recombinant p38alpha
experimental_endpoint: IC50 (nM)

What is its IC50 for Mitogen-activated protein kinase 14 (Homo sapiens)? Entry: `CC(C)S(=O)(=O)n1c(N)nc2ccc(-c3[nH]c(-c4c(F)cccc4Cl)nc3-c3ccccc3)cc21`
14.5

A. CC(C)S(=O)(=O)n1c(N)nc2ccc(-c3nc(-c4ccccc4C(F)(F)F)[nH]c3-c3ccccc3)cc21
B. CC(C)Cn1c(N)nc2ccc(-c3[nH]c(-c4c(F)cccc4F)nc3-c3ccccc3)cc21
When A and B are compared, which has the higher number for IC50? Response format: the label of the selected entry.
A

1. CC(C)S(=O)(=O)n1c(N)nc2ccc(-c3[nH]c(-c4c(F)cccc4F)nc3-c3ccccc3)nc21
2. CC(C)S(=O)(=O)n1c(N)nc2ccc(-c3[nH]c(-c4c(Cl)cccc4C(F)(F)F)nc3-c3ccccc3)cc21
Please compare: 1 and 2 . Report which one has the smaller IC50 value. Label of pick, please.
1

Where do the numbers come from? From ChEMBL document CHEMBL1143180.
